molecular target: HCV NS3/4A protease complex, H77 strain (Hepatitis C virus genotype 1a, UniProt P27958, C1454S/C1711G); construct: recombinant HCV NS3/4A protease complex (amino acids 1027 to 1711) for these strains; His-tag (inferred from pET21b vector and Ni-NTA purification); test: FRET peptide assay to monitor HCV NS3/4A proteolytic activity (H77 strain); settings: H77 strain (1a genotype)
Sequence (P27958 1027-1711 C1454S/C1711G, one chain of several): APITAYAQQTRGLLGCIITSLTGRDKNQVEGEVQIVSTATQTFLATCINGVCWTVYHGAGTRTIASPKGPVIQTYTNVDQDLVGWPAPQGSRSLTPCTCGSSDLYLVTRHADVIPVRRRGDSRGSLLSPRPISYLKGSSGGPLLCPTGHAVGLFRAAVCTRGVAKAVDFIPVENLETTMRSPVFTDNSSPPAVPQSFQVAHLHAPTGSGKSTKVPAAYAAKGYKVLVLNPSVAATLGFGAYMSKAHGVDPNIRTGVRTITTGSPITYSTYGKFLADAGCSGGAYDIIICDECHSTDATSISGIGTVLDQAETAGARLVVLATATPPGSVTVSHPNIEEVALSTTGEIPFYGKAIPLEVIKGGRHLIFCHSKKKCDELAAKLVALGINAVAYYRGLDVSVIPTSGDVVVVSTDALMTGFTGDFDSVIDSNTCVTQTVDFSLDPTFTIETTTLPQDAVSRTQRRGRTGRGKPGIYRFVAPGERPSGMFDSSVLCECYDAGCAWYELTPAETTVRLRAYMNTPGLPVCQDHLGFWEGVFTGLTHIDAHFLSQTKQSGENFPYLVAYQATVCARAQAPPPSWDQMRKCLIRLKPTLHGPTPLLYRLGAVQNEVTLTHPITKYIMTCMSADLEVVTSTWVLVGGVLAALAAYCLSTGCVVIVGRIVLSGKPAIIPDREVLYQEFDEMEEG
measured_parameter: IC50 (nM)

compound | reported_result
CC(C)(C)OC(=O)N[C@H]1CN(C2CC2)CCC/C=C\C2C[C@@]2(C(=O)NS(=O)(=O)C2CC2)NC(=O)[C@@H]2C[C@@H](Oc3ccccn3)CN2C1=O (stereo partly shown) | 18

These measurements were taken from patent US20080107625A1.
